System: CDK7
Conditions: concentration: 1 μM, replicates: in singlicate; n = 1;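 further: KINOMEscan kinase panel screen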
%Inh values for the molecules below.
endpoint.name: %Inh (%)

molecule | unit.tag | obs.value
C[C@@H](Oc1cc(-n2cnc3cc(-c4ccnc(NCCS(C)(=O)=O)c4)ccc32)sc1C(N)=O)c1ccccc1Cl | % | 0
Nc1ncc(-c2ccc3nccc(-c4ccncc4)c3c2)cc1S(=O)(=O)N1CCOCC1 | % | 72
COc1ccc(Nc2nccc(N3CCC(NC(=O)Nc4cccc(OC)c4)C3)n2)cc1 (stereo not shown) | % | 0
O=C(O)C(F)(F)F.O=C(O)C(F)(F)F.O=c1[nH]ccc2nc(N[C@@H]3CCCNC3)nc(Nc3ccc(S(=O)(=O)N4CCOCC4)cc3)c12 | % | 99.6

###

System: LZK
Construct: gene MAP3K13
Settings: concentration: 1 μM, replicates: in singlicate; n = 1
Listed next: entries and their corresponding %Inh.

compound | target.or.system | %Inh, %
CN(C)Cc1ccc(-c2ccc3c(Nc4ccc(Oc5ccccn5)cc4)ccnc3c2)o1 [GW567148] | LZK | 27
O=C(Nc1cccc(-c2nn3ccccc3c2-c2ccnc(Nc3cccc(F)c3)n2)c1)c1c(F)ccc(F)c1Cl [GSK357952] | LZK | 0
CSc1cccc2c(-c3ccncn3)c(-c3ccc(F)cc3)nn12 [GW514786] | LZK | 20
CC(C)c1nc(-c2cccc(NS(=O)(=O)c3c(F)cccc3F)c2F)c(-c2ccnc(Nc3ccc(N4CCOCC4)nc3)n2)s1 [GSK2008607] | LZK | 95.8
O=C(Nc1ccccc1F)NC1CCN(c2ccnc(Nc3ccc(F)cc3)n2)CC1 [GSK1379800] | LZK | 21
Cc1occc1-c1ncc(OC[C@@H](N)Cc2c[nH]c3ccccc23)cc1-c1ccc2[nH]nc(C)c2c1.O=C(O)C(F)(F)F [GSK682037] | LZK | 0
Fc1ccc(-c2ncn(C3CCNCC3)c2-c2ccnc(Oc3ccc(-c4ccccc4)cc3)n2)cc1 [SB-245391] | LZK | 0
Cc1cccc(Nc2nc(N[C@H]3CCNC3)ncc2C(N)=O)c1.Cl [GSK2197149] | LZK | 0

###

System: EPHA2
Conditions: concentration: 1 μM, replicates: in singlicate; n = 1
Listing: %Inh of selected compounds

compound | %Inh (%)
Cc1ccc(F)c(C(=O)Nc2cccc(-c3nn4ccccc4c3-c3ccnc(Nc4cccc(F)c4)n3)c2)c1F | 26
COc1cc2c(cc1OCCN1CCNCC1)ncc1c3ccc(C#N)cc3[nH]c21 | 3
Cc1ccc(C)c(NC(=O)NC2CCN(c3ccnc(Nc4ccc(F)cc4)n3)C2)c1 (centres unmarked) | 0
CN1CCN(Cc2cccc(-c3ccc4c(Nc5ccc(Oc6ccccc6)cc5)ccnc4c3)c2)CC1 | 4
COc1ccc(-c2coc3ccc(-c4nnc(SCc5ccc(OC)c(C(F)(F)F)c5)o4)cc23)cc1 | 2
CCS(=O)(=O)c1ccc(OC)c(Nc2nccc(-c3c(-c4cccc(NC(=O)c5c(F)cccc5F)c4)nn4ncccc34)n2)c1 | 0
Nc1n[nH]c2cnc(-c3ccccc3)cc12 | 16
COc1ccc(Nc2nccc(NCCNC(=O)c3cc4ccccc4s3)n2)cc1 | 8

###

Test system: EPHA4
Details: concentration: 1 μM, replicates: in singlicate; n = 1
Measured %Inh by item
endpoint.name: %Inh (%)

compound | obs.value
COc1cccc(NC(=O)NC2CCN(c3ccnc(Nc4cc(OC)c(OC)c(OC)c4)n3)C2)c1 (stereo not drawn) [GSK1379763] | 0
Cc1occc1-c1ncc(OC[C@@H](N)Cc2c[nH]c3ccccc23)cc1-c1ccc2[nH]nc(C)c2c1.O=C(O)C(F)(F)F [GSK682037] | 0
c1ccc(-c2n[nH]cc2Nc2ccnc3ccccc23)nc1 [GW694077] | 4
c1ccc(-c2cnc3nccnn23)cc1 [AH20685] | 0
O=c1[nH]cc(-c2ccc(N3CCOCC3)cc2)c2sc(-c3cn[nH]c3)cc12 [GSK2276055] | 0
Cc1ccc(C)c(NC(=O)NC2CCN(c3ccnc(Nc4ccc(F)cc4)n3)C2)c1 (stereo not drawn) [GSK1379720] | 0
COc1cccc(-c2ccc3c(NC(=O)C4CC4)n[nH]c3n2)c1 [SB-710903] | 20
COc1ccc(CNC(=O)NC2CCN(c3ccnc(Nc4ccc(F)cc4)n3)CC2)cc1 [GSK1379788] | 0
c1ccc(Oc2ccc(Nc3ccnc4cc(-c5ccc(CNCCN6CCOCC6)o5)ccc34)cc2)nc1 [GW567145] | 0
